MEASUREMENT TARGET: TCF4 bHLH domain (Homo sapiens) (UniProt P15884)
Sequence (P15884 565-624): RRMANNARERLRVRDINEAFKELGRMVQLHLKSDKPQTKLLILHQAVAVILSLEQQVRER
MEASUREMENT DESCRIPTION: FP
CONDITION SET: 5hmC at strand 1 C8, ITC: 20 mM Tris pH 7.5, 150 mM NaCl, 25 C
pKd: −log10 of the molar value.
RECORDED METRIC: pKd

[[record]]
ordered_residues = "CCGGTCACGTGTCCTA (double strand) [FAM 16-mer central CpG H/C]"
result_number = 6.80


====

MEASUREMENT TARGET: TCF4 bHLH domain (Homo sapiens)
MEASUREMENT DESCRIPTION: FP
CONDITION SET: 5caC at strand 1 C8, ITC: 20 mM Tris pH 7.5, 150 mM NaCl, 25 C
RECORDED METRIC: Kd (nM)

[[record]]
ordered_residues = "CCGGTCACGTGTCCTA (double strand) [FAM 16-mer central CpG 5caC/C]"
result_number = 140


Data origin: paper PMC6895265
